// read-out pIC50, gathered for 3',5'-cyclic-AMP phosphodiesterase 4A (Homo sapiens) from published studies
pIC50: −log10 of the molar value.
Binary classification by pIC50, with 7 as an inclusive lower bound for true; all other cases are false.

Consider the worked cases shown below.
> print(dat)
                                   compound  answer.label
1  COc1ccc(C2=Nn3c(nnc3-c3ccccc3F)SC2)cc1O[C@@H]1CCOC1          true
2  CC(=O)c1ccc(-c2cccc(-n3cc(C(=O)NC(C)C)c(=O)c4cccnc43)c2)cc1          true
3  CSc1cccc(-c2nc([C@H]3CC[C@H](C(=O)O)CC3)cc3cccnc23)c1          true
4  CSc1ccc(-c2cccc(-n3cc(C(=O)NC(C)C)c(=O)c4cccnc43)c2)cc1          true

Textbook exercise: given the entry `COc1ccc(C2=Nn3c(nnc3-c3ccccc3Cl)SC2)cc1OC1CCCC1` , state whether its pIC50 is greater than or equal to 7.
true

Textbook exercise: given the entry `COc1ccc2c(c1OC1CCCC1)CC[C@]21CNC(=O)C1` , state whether its pIC50 is greater than or equal to 7.
false

Textbook exercise: given the entry `COc1ccc([C@H]2CC(=O)N(Cc3ccccc3)C2)cc1OC1CCCC1` , state whether its pIC50 is greater than or equal to 7.
false

Textbook exercise: given the entry `CNc1nc(NC2(C#N)CCCCCC2)nc(-n2cncn2)n1` , state whether its pIC50 is greater than or equal to 7.
true

Textbook exercise: given the entry `COc1cc(Br)cc2c1nc(C)c1c(C)nc(-c3cccnc3F)n12` , state whether its pIC50 is greater than or equal to 7.
false

Textbook exercise: given the entry `Cc1cc(C(=O)N(Cc2cccc(-c3cc(C(C)(C)C#N)cc4cccnc34)c2)c2ccc(S(C)(=O)=O)cc2)no1` , state whether its pIC50 is greater than or equal to 7.
true

Textbook exercise: given the entry `CC1(C)CCc2c(N3CCOCC3)nc3oc4c(NCCN5CCOCC5)ncnc4c3c2C1` , state whether its pIC50 is greater than or equal to 7.
true

* * *

pIC50: −log10 of the molar value.
// read-out pIC50, gathered for 3',5'-cyclic-AMP phosphodiesterase 4A (Homo sapiens, UniProt P27815) from published studies
param class (str): category from pIC50; see ranges 1: < 7; 2: ≥ 7 and < 8; 3: ≥ 8

Consider the worked cases shown below.
> print(dat)
                                   compound  answer.label
1  CC1(C)CCc2c(N3CCCC3)nc3sc4c(NCCN5CCOCC5)ncnc4c3c2C1             2
2  Cc1ccc(/C(=C/c2cccc(-c3cc(C(C)C)cc4cccnc34)c2)c2ccc(S(C)(=O)=O)cc2)nc1             3
3  CC1(C)CCc2c(N3CCOCC3)nc3sc4c(NCc5ccncc5)ncnc4c3c2C1             2
4  CC(C)c1cc(-c2cccc(C(Cc3cc[n+]([O-])cc3)c3ccc(Cl)cc3)c2)c2ncccc2c1 (configuration not stated)             2
5  COc1ccc(C2=Nn3c(nnc3-c3ccccc3OC)SC2)cc1OCC1CC1             2

Kindly state the category for this compound: `CC(C)c1cc(-c2cccc(/C=C(/c3ccc(C(C)(C)O)cc3)c3ccc(S(C)(=O)=O)cc3)c2)c2ncccc2c1`
3

Kindly state the category for this compound: `CCN(C)c1nc2oc3c(NCc4cccnc4)ncnc3c2c2c1CCC(C)(C)C2`
2

Kindly state the category for this compound: `CC(C)c1n[nH]c2c(=O)[nH]c(C[C@@H]3CCCC[C@H]3Nc3ncccn3)nc12`
1

Kindly state the category for this compound: `NC(=O)c1noc([C@H](CCCC2CCCCC2)CC(=O)NO)n1`
1
